Tested on: 885724-159-R-J1-PDC complex spheroid viability
ASSAY PROTOCOL: Anticancer human tumor 885724-159-R-J1-PDC patient-derived pancreatic adenocarcinoma cell line growth inhibition [POLQ]
TEST SETTINGS: second compound 3.16 µM; first compound 3.16 µM; hits give low values
# viability, T/C values compiled below

COMPOUND: CC1COCCN1c1cc(C2(O)CC3CCC(C2)O3)c2cnn(-c3ccn[nH]3)c2n1 (stereo not drawn) + Cc1cccc(N(C)C(=O)C2C(O)CCN2c2nc(C)cc(C(F)(F)F)c2C#N)c1
viability, T/C [%]: 36.5
--
COMPOUND: C#Cc1c(F)ccc2cc(O)cc(-c3ncc4c(N5CC6CCC(C5)N6)nc(OCC56CCCN5CC(F)C6)nc4c3F)c12 (stereo not drawn) + COC1C(OC(N)=O)C(O)C(Oc2ccc3c(O)c(NC(=O)c4ccc(O)c(CC=C(C)C)c4)c(=O)oc3c2C)OC1(C)C
viability, T/C [%]: 47.8
--
COMPOUND: O=C(Nc1ccc(O)c(NS(=O)(=O)c2ccc(F)cc2)c1)c1ccc(-c2ccccc2)cc1 + Cc1cccc(N(C)C(=O)C2C(O)CCN2c2nc(C)cc(C(F)(F)F)c2C#N)c1
viability, T/C [%]: 115

====

# viability, T/C values compiled below
Test system: 885724-159-R-J1-PDC complex spheroid viability
ASSAY PROTOCOL: Anticancer human tumor 885724-159-R-J1-PDC cell line growth inhibition [POLQ];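 also: spheroids exposed to compounds for 7 days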
TEST SETTINGS: second compound 3.16 µM; first compound 3.16 µM; hits give low values
QUANTITY: viability, T/C (%)

MOLECULE: CCc1cc2c(N3CCc4c(cc(Cn5ccnc5)cc4-c4cn(C)nc4C(F)(F)F)C3=O)cc(C)nc2c(OC)n1 + Cc1cccc(N(C)C(=O)C2C(O)CCN2c2nc(C)cc(C(F)(F)F)c2C#N)c1
ASSAY RESULT: 72.9
--
MOLECULE: CC1COCCN1c1cc(C2(O)CC3CCC(C2)O3)c2cnn(-c3ccn[nH]3)c2n1 (stereo not drawn) + Nc1ccc(C#CCN(C(=O)Cc2ncc(C(F)(F)F)cc2C(F)(F)F)c2ccc(F)cc2)nn1
ASSAY RESULT: 35.3
--
MOLECULE: Nc1ccn(C2OC(CO)C(O)C2(F)F)c(=O)n1 (stereo not drawn) + Cc1cccc(N(C)C(=O)C2C(O)CCN2c2nc(C)cc(C(F)(F)F)c2C#N)c1
ASSAY RESULT: 54.5

====

Test system: 885724-159-R-J1-PDC complex spheroid viability
ASSAY PROTOCOL: Anticancer human tumor 885724-159-R-J1-PDC cell line growth inhibition [POLQ];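 also: spheroids exposed to compounds for 7 days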
TEST SETTINGS: second compound 0.1 µM; first compound 0.316 µM; hits give low values

MOLECULE: CCc1c2c(nc3ccc(O)cc13)-c1cc3c(c(=O)n1C2)COC(=O)[C@]3(O)CC + Cc1cccc(N(C)C(=O)C2C(O)CCN2c2nc(C)cc(C(F)(F)F)c2C#N)c1
UNIT OF MEASURE: %
viability, T/C: 35.3

MOLECULE: O=C(Nc1ccc(O)c(NS(=O)(=O)c2ccc(F)cc2)c1)c1ccc(-c2ccccc2)cc1 + Nc1ccc(C#CCN(C(=O)Cc2ncc(C(F)(F)F)cc2C(F)(F)F)c2ccc(F)cc2)nn1
UNIT OF MEASURE: %
viability, T/C: 112

MOLECULE: O=C(c1cc(Cc2n[nH]c(=O)c3ccccc23)ccc1F)N1CCN(C(=O)C2CC2)CC1 + Cc1cccc(N(C)C(=O)C2C(O)CCN2c2nc(C)cc(C(F)(F)F)c2C#N)c1
UNIT OF MEASURE: %
viability, T/C: 100

MOLECULE: COc1cccc2c1C(=O)c1c(O)c3c(c(O)c1C2=O)CC(O)(C(=O)CO)CC3OC1CC(N)C(O)C(C)O1 (stereo not given) + Cc1cccc(N(C)C(=O)C2C(O)CCN2c2nc(C)cc(C(F)(F)F)c2C#N)c1
UNIT OF MEASURE: %
viability, T/C: 34.5

MOLECULE: C#Cc1c(F)ccc2cc(O)cc(-c3ncc4c(N5CC6CCC(C5)N6)nc(OCC56CCCN5CC(F)C6)nc4c3F)c12 (stereo not given) + COC1C(OC(N)=O)C(O)C(Oc2ccc3c(O)c(NC(=O)c4ccc(O)c(CC=C(C)C)c4)c(=O)oc3c2C)OC1(C)C
UNIT OF MEASURE: %
viability, T/C: 93

MOLECULE: O=C(Nc1ccc(O)c(NS(=O)(=O)c2ccc(F)cc2)c1)c1ccc(-c2ccccc2)cc1 + COC1C(OC(N)=O)C(O)C(Oc2ccc3c(O)c(NC(=O)c4ccc(O)c(CC=C(C)C)c4)c(=O)oc3c2C)OC1(C)C
UNIT OF MEASURE: %
viability, T/C: 98.1

MOLECULE: C#Cc1c(F)ccc2cc(O)cc(-c3ncc4c(N5CC6CCC(C5)N6)nc(OCC56CCCN5CC(F)C6)nc4c3F)c12 (stereo not given) + Nc1ccc(C#CCN(C(=O)Cc2ncc(C(F)(F)F)cc2C(F)(F)F)c2ccc(F)cc2)nn1
UNIT OF MEASURE: %
viability, T/C: 93.9

MOLECULE: C=CCn1c(=O)c2cnc(Nc3ccc(N4CCN(C)CC4)cc3)nc2n1-c1cccc(C(C)(C)O)n1 + Nc1ccc(C#CCN(C(=O)Cc2ncc(C(F)(F)F)cc2C(F)(F)F)c2ccc(F)cc2)nn1
UNIT OF MEASURE: %
viability, T/C: 57.1

MOLECULE: COc1cccc2c1C(=O)c1c(O)c3c(c(O)c1C2=O)CC(O)(C(=O)CO)CC3OC1CC(N)C(O)C(C)O1 (stereo not given) + Nc1ccc(C#CCN(C(=O)Cc2ncc(C(F)(F)F)cc2C(F)(F)F)c2ccc(F)cc2)nn1
UNIT OF MEASURE: %
viability, T/C: 40.4

MOLECULE: CNCc1ccc(-c2[nH]c3cc(F)cc4c3c2CCNC4=O)cc1 + Cc1cccc(N(C)C(=O)C2C(O)CCN2c2nc(C)cc(C(F)(F)F)c2C#N)c1
UNIT OF MEASURE: %
viability, T/C: 91.1
